- tgt: T1, Clostridium difficile toxin A (TcdA) (Clostridium difficile, UniProt P16154 1-2710)
- T1 construct: mature; also called full-length TcdA
- experiment: SPR (Biacore 3000), VHH over immobilized TcdA; ratio of parent KD to mutant KD
// reported KD^WT/KD per item

binder	KD^WT/KD
A26.8 VHH mutant R104W (VHH, not shown: small tags and cut ends) VHH: QVKLEESGGGLVQAGGSLRLSCAASERTFSRYPVAWFRQAPGAEREFVAVISSTGTSTYYADSVKGRFTISRDNAKVTVYLQMNNLKREDTAVYFCAVNSQRTWLQDPNEYDYWGQGTQVTVSS	0.1
A26.8-T103K (VHH, not shown: small tags and cut ends) VHH: QVKLEESGGGLVQAGGSLRLSCAASERTFSRYPVAWFRQAPGAEREFVAVISSTGTSTYYADSVKGRFTISRDNAKVTVYLQMNNLKREDTAVYFCAVNSQRKRLQDPNEYDYWGQGTQVTVSS	2.3
A26.8-T56I (VHH, not shown: small tags and cut ends) VHH: QVKLEESGGGLVQAGGSLRLSCAASERTFSRYPVAWFRQAPGAEREFVAVISSTGISTYYADSVKGRFTISRDNAKVTVYLQMNNLKREDTAVYFCAVNSQRTRLQDPNEYDYWGQGTQVTVSS	1.4
A26.8 VHH mutant D107N (VHH, not shown: small tags and cut ends) VHH: QVKLEESGGGLVQAGGSLRLSCAASERTFSRYPVAWFRQAPGAEREFVAVISSTGTSTYYADSVKGRFTISRDNAKVTVYLQMNNLKREDTAVYFCAVNSQRTRLQNPNEYDYWGQGTQVTVSS	0.9
